Measured z-score accompanies every entry in the list below.
# testDetails: blood-stage malaria parasite viability loss – strain 3D7, DAPI fluorescence, 100 nL, primary screen (AID 1184);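 note: parasites grown inside human red blood cells in medium with human serum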
# measurementParameters: P. falciparum 3D7 growth, 3 d, higher = more signal
Write no unit; give the number alone.

Look over these answered cases.
COCCOC(=O)N1C(=O)[C@@]2(c3ccccc31)[C@H](C(=O)N1CCN(c3ncccn3)CC1)[C@H]1C(=O)O[C@H](c3ccccc3)[C@H](c3ccccc3)N1[C@@H]2c1ccccc1OCCO    -1.99
COC(=O)C1(Cc2ccccc2)C=C2C(=C(C)C(=O)C2C)CN1 (stereo unspecified)    0.235

[Q] Field request: z-score | item: C=CC[C@@]1(C(=O)OC)N=C(c2ccc(OCCCO)cc2)O[C@@H]1c1ccccc1N=[N+]=[N-]
[A] -2.27

[Q] Would you mind doing CO[C@H]1O[C@H](CO)[C@@H](OC(=O)Nc2ccccc2)[C@H](OC(=O)Nc2ccccc2)[C@H]1OC(=O)Nc1ccccc1 as well?
[A] -2.51

[Q] Field entry: COCCOC(=O)N1C(=O)[C@@]2(c3cc(C#CCCO)ccc31)[C@H](C(N)=O)[C@H]1C(=O)O[C@H](c3ccccc3)[C@H](c3ccccc3)N1[C@@H]2c1ccccc1OCCO
[A] -1.31

[Q] Now give it for O=C1C2C=CC(C(O)C3CCCCC3)N(n3cnnc3)C2C(=O)N1Cc1ccccc1 (stereo unspecified) too.
[A] -0.902

[Q] Could you do the same for NC(=O)N1C(=O)C2C(C1=O)C1C=C(CCCO)C2C(c2ccc(CN3CCCC3)cc2)N1Cc1cc2c(cc1Br)OCO2 (stereo unspecified) , please?
[A] -0.459
